target: rat collagen type I (rat) (UniProt P02454); experiment: dried collagen assay, 5 uM peptide
Sequence (P02454 152-1207, chain 1 of 2): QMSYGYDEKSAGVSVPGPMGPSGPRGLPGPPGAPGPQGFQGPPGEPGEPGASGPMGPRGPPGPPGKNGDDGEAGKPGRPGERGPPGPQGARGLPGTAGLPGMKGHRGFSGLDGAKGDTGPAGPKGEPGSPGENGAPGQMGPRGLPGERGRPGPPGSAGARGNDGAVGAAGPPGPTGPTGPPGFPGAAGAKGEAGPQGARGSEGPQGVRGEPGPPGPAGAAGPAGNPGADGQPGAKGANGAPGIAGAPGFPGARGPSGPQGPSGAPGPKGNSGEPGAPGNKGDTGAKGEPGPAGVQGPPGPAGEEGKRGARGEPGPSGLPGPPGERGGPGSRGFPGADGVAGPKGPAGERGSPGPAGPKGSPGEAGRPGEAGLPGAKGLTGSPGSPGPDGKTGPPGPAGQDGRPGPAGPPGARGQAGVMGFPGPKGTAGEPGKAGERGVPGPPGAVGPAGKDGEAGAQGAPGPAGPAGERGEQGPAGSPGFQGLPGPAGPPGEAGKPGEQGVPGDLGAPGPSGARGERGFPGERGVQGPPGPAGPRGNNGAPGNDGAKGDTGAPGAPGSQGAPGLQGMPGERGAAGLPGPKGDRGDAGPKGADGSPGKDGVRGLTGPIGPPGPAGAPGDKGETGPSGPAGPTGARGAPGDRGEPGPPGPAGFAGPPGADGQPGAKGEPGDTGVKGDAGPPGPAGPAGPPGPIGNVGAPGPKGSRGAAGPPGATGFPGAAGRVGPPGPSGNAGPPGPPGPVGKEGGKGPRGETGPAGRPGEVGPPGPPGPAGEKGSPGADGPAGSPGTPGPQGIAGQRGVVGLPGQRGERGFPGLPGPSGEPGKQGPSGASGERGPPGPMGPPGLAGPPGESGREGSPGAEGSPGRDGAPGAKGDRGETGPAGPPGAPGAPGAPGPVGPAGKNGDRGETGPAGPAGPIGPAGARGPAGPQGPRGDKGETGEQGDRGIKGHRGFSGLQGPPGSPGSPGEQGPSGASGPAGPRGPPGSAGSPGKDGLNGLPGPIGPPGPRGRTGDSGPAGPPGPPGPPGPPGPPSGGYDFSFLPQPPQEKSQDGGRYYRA
Sequence (P02466 86-1125, chain 2 of 2, further chain): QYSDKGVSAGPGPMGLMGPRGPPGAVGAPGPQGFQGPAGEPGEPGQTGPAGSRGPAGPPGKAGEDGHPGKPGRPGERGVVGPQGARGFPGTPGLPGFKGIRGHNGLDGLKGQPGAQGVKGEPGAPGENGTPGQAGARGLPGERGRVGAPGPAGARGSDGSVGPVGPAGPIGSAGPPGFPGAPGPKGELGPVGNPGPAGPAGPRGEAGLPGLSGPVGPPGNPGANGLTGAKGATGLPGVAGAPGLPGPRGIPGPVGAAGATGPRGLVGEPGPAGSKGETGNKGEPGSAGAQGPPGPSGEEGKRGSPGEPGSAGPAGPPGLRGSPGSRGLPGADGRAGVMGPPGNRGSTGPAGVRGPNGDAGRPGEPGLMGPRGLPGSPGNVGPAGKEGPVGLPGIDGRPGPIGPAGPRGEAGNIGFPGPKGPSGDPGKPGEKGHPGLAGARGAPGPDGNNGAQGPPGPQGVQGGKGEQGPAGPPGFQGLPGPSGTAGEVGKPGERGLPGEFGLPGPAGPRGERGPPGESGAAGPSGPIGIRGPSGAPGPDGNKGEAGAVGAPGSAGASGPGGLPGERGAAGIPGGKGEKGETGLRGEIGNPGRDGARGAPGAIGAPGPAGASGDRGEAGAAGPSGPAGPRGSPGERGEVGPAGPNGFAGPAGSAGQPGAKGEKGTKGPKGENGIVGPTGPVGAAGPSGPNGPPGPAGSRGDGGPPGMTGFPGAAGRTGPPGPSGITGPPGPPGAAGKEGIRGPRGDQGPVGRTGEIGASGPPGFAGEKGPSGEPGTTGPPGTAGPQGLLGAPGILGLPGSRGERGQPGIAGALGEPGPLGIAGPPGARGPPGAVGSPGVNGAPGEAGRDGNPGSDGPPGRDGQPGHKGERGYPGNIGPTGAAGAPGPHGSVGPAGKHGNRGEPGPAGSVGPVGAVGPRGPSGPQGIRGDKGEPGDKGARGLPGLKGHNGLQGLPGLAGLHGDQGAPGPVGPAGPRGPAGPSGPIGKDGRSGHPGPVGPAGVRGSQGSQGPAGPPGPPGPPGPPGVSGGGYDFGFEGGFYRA
Bridge positions count the residues as written; N and C are the ends. Square brackets hold non-standard residues; d marks the D form. Ends that are not written are not given here.
attribute_measured: % Collagen Binding, Dried Rat (%)

Field: example entries. Status: answers known.
YHACYQAGCWI[dW] (disulfide 4-9 (inferred)) [SEQ ID NO: 162]	14
GQW[dT]CSGDEYTWHCNYE (disulfide 5-14 (inferred)) [SEQ ID NO: 166]	3
YHACYQAGCW[dI]W (disulfide 4-9 (inferred)) [SEQ ID NO: 161]	10
Y[dH]ACYQAGCWIW (disulfide 4-9 (inferred)) [SEQ ID NO: 153]	0
DWTCS[dA]DEYTWHCNYE (disulfide 4-13 (inferred); not fully specified (C-terminus); printed as D W T C S a D E Y T W H C N Y E) [SEQ ID NO: 179]	75

(I) GQWTCSG[dD]EYTWHCNYE (disulfide 5-14 (inferred); not fully specified (C-terminus)) [SEQ ID NO: 169]
(II) GQWTCSGDEYTWHCN[dY]E (disulfide 5-14 (inferred); not fully specified (C-terminus)) [SEQ ID NO: 177]
Input pair: I , II . Output: entry with lower % Collagen Binding, Dried Rat. Respond with the label that goes with your answer.
I
